System: HCC-2998 colon
METHOD_NOTES: NCI-60 one-dose screen, 48 h (100 = growth as untreated, 0 = no growth, -100 = all killed)
MEASUREMENT_CONDITIONS: 10 µM
About 83,000 compounds went through this panel and 20% of them were active in at least one assay; those are over-represented in the sample as a whole.
Catalogue of compounds with associated growth
# output: bare number, implied unit %

CNC(=O)c1cc(Oc2ccc(NC(=O)Nc3ccc(Cl)c(OC4CCCCC4)c3)c(F)c2)ccn1	82.6
CCC(CCNc1cc(OC)cc2cccnc12)CN1C(=O)c2ccccc2C1=O (stereo not given)	105
COC(=O)C1(C(=O)OC)C2C(=O)C3C(C21)C3(C(=O)OC(C)(C)C)C(=O)OC(C)(C)C (stereo not given)	112
CCCCCCCCCCSC(=N)N (tested in a mixture with another compound)	-57.9
Cc1cc(C#Cc2ccccc2)ccc1-n1c(/C=C/c2cc(O)ccc2O)nc2ccccc2c1=O	-49.6
C/C=C\COc1cc(C)c(Cl)cc1Cl	118
COc1cc2c3c(cccc3c1)C(=O)N(CCN1CCCC1)C2=O	44.4
Nc1nc2c(ncn2C2OC3COP(=O)(O)OC4C(COP(=O)(O)OC2C3O)OC(n2cnc3c(N)ncnc32)C4O)c(=O)[nH]1 (stereo not given)	99.3
COCc1cc2c(cc1Br)OCO2	95.9

Consider the record given below.
Entry under test: `O=C(Nc1ccc(OCc2nnc(-c3ccccc3)o2)c(F)c1)Nc1ccc(Cl)c(Cl)c1` . Its growth was 58.5

###

Test system: SR leukemia
METHOD_NOTES: NCI-60 one-dose screen, 48 h (100 = growth as untreated, 0 = no growth, -100 = all killed)
MEASUREMENT_CONDITIONS: 10 µM
Compounds without any hit were thinned out: in the full panel of roughly 83,000, 20% have a hit.
Decision: growth beneath 50% gives Condition met; growth meeting or exceeding 50% gives Condition not met.

O=S(=O)(NC1c2ccccc2Oc2ccccc21)c1cc(Cl)ccc1Cl	Condition not met

Prompt: Hello, I'm reviewing records and need to know if growth of `Cc1ccc(-n2c(-c3cc4c([nH]c5ccccc54)c(-c4cccc(O)c4)n3)n[nH]c2=S)cc1` is below 50%. Could you check?
Response: Condition met

Prompt: Is it true that growth reported for CN1/C(=C\C(I)C(I)C2=[N+](C)c3ccccc3C2(C)C)C(C)(C)c2ccccc21 (stereo not given) is less than 50%?
Response: Condition met

Prompt: growth under 50%? Item: `COc1cc(CSc2nc3ccc(C)cc3c(=O)n2Cc2ccccc2)cc(OC)c1OC`
Response: Condition met

Prompt: State whether 50% exceeds growth recorded for `CC(=O)OCC(COC(C)=O)(COC(C)=O)COC(C)=O` .
Response: Condition not met

Prompt: Consider the compound `CCn1nc(-c2ccccn2)c2cccnc2c1=S` . Is its growth strictly less than 50%?
Response: Condition not met

Prompt: Determine whether this compound shows growth lower than 50% (ties excluded): `CC1(C)Cc2c(cn(Cc3ccccc3)c2-c2ccccc2)-c2oncc21`
Response: Condition not met

Prompt: Determine whether this compound shows growth lower than 50% (ties excluded): `CCOc1nc(-c2ccccc2)cc2c(O)c(C(=O)NC(C)C)[nH]c(=O)c12`
Response: Condition not met

Prompt: Item `CCN1CCN(c2ccc(Nc3ncnc4c3nnn4CCc3cc(OC)cc(OC)c3)cc2)CC1` : growth beneath 50%, strictly?
Response: Condition not met
